# Subject Of Test: Virion infectivity factor (Human immunodeficiency virus type 1 group M subtype B (isolate BH10)) + Virion infectivity factor (Human immunodeficiency virus type 1 group M subtype B (isolate BRU/LAI)) + Virion infectivity factor (Human immunodeficiency virus type 1 group M subtype B (isolate PCV12)) + Virion infectivity factor (Human immunodeficiency virus type 1 group M subtype B (isolate HXB2)) + DNA dC->dU-editing enzyme APOBEC-3G (Homo sapiens) (UniProt P69720+P69721+P69722+P69723+Q9HC16)
# Assay Summary: inhibitors of Vif binding to APOBEC3G peptide, primary screen, biochemical, TR-FRET, GST-Vif 1-94, biotin-A3G peptide, dose response retest (AID 1117319);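 also: Vif residues 1-94 fused to GST binding biotinylated APOBEC3G peptide 110-148; 0% = full assay without inhibitor and 100% = GST in place of GST-Vif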
# Conditions Used: hits give high values
Screen size: about 260,000 compounds; about 1,500 (0.58%) were called active. Not shown: some 5% with an inconclusive outcome. These entries were drawn from the full list. Measured potencies and affinities stand elsewhere.
// reported inhibition per item
Measure Name: inhibition (%)

[[record]]
compound = "COc1ccc(-n2nnc3c(SCC(=O)OCc4ccccc4)ncnc32)cc1"
experimental_value = 0.84

[[record]]
compound = "Cc1ccc2sc(N(CCCN(C)C)C(=O)c3ccc(S(=O)(=O)N4CCOCC4)cc3)nc2c1C"
experimental_value = 7.87

[[record]]
compound = "Cc1cc2c(cc1C)NC1=C(N2)OC(c2cccc(O)c2)C1=O (stereo not drawn)"
experimental_value = 5.24

[[record]]
compound = "Cc1nn2c(=S)[nH]nc2[nH]c1=O"
experimental_value = 14.1

[[record]]
compound = "Nc1cc(=O)nc(SCC(=O)Nc2ccccc2Cl)n1-c1ccccc1"
experimental_value = -1.2

[[record]]
compound = "O=[N+]([O-])c1cc(-c2ccccc2)cc([N+](=O)[O-])c1O"
experimental_value = -4.83

[[record]]
compound = "N#Cc1ccccc1CN1C(=O)NC(Cc2c[nH]c3ccccc23)C1=O (stereo not drawn)"
experimental_value = -3.01

[[record]]
compound = "CC1(C)N([O-])C2=C(CCCC2)[N+]1=O"
experimental_value = 4.01

[[record]]
compound = "COc1cccc(C(C#N)N2CCOCC2)c1 (stereo not drawn)"
experimental_value = -0.56

[[record]]
compound = "COC(=O)CN(C(=S)Nc1ccccc1)C1CC(=O)N(c2ccc(OC)cc2)C1=O (stereo not drawn)"
experimental_value = -1.92

[[record]]
compound = "CC1(C)CC(=O)C=C(c2n[nH]nc2C2CC2)C1"
experimental_value = 4.55

[[record]]
compound = "Cc1n[nH]c(=S)n(/N=C/c2cccs2)c1=O"
experimental_value = -1.81

[[record]]
compound = "Cc1ccc(CN2CCC[C@]3(N[C@H](c4ccc(C(F)(F)F)cc4)[C@@H]4C(=O)N(Cc5ccccc5)C(=O)[C@@H]43)C2=O)cc1"
experimental_value = 5.48

[[record]]
compound = "CC12CCCc3c(O)cc(=O)n(c31)-c1ccccc12 (stereo not drawn)"
experimental_value = 0.05

[[record]]
compound = "Cc1ccc(C(=O)N[C@H](C(=O)OCC(=O)c2ccc[nH]2)C(C)C)cc1"
experimental_value = -7.75

[[record]]
compound = "COc1ccccc1CC(O)CC1c2c(cc3c(c2OC)OCO3)CCN1C (stereo not drawn)"
experimental_value = -0.54

[[record]]
compound = "CC1=CN2CC(O)CN=C2C=C1 (stereo not drawn)"
experimental_value = -3.44

[[record]]
compound = "Cc1c(NC(=O)CN2CCN(c3ccc(F)cc3)CC2)c(=O)n(-c2ccccc2)n1C"
experimental_value = -4.9

[[record]]
compound = "Cc1ccc(CNc2ccc3c(c2)ncn3C(C)C)cc1"
experimental_value = 15.2

[[record]]
compound = "Cc1csc(NC(=O)Cc2ccccc2[N+](=O)[O-])n1"
experimental_value = -11

[[record]]
compound = "CC(=O)c1cccc(NC(=O)N2CCCC2C(=O)NC2CCCCC2)c1 (stereo not drawn)"
experimental_value = -4.16

[[record]]
compound = "CCOC(=O)c1ccc(Oc2nc(N(C)C)nc(N3CCOCC3)n2)cc1"
experimental_value = -15.9

[[record]]
compound = "O=C1CSC(c2ccc(Cl)cc2)N1c1cccnc1 (stereo not drawn)"
experimental_value = 3.17

